Listed compounds paired with reported TGI
tested on: UO-31 renal; test: NCI tumour cell line growth inhibition, 48 h
Readout: TGI

INSERT INTO measurements (compound, reported) VALUES
  ('CCN(CC)c1ccc(/C=C(\C#N)c2nc(N)nc(N3N=C(C)CC3(C)C)n2)cc1', '55.4 µM'),
  ('COc1ccc2[nH]c(CCNC(=O)c3cc([N+](=O)[O-])cc([N+](=O)[O-])c3)cc2c1', '> 100 µM'),
  ('CC1C(c2ccc(F)cc2)c2cc3c(cc2OC1N1CCCC1)OCO3 (configuration not stated)', '> 100 µM'),
  ('C=C(O)c1ccccc1C#Cc1ccccc1C(=O)OC', '> 10 µM'),
  ('CCCN1C(=O)C/C(=C\C(C)=O)Nc2ccccc21', '> 100 µM'),
  ('NC(=S)/N=C/c1c(O)c2ccccc2oc1=O', '> 100 µM'),
  ('COc1nc2c(OC)cccc2c(OC)c1C=O', '> 100 µM'),
  ('C/C(=N/NC(=S)Nc1ccccc1Cl)c1ccccn1', '12.3 µM'),
  ('O=C1/C(=C/c2cccc([N+](=O)[O-])c2)COc2ccc(O)c(O)c21', '2.29 µM'),
  ('O=C(NN=C1CCN(Cc2ccccc2)CC1)C(O)(c1ccccc1)c1ccccc1', '> 100 µM'),
  ('Cc1ccccc1NC(=O)NC(Oc1ccccc1)(C(F)(F)F)C(F)(F)F', '> 100 µM'),
  ('OCCN(CCO)N=Nc1ccc(-c2nc3ccccc3[nH]2)cc1', '> 100 µM');

---

Listed compounds paired with reported TGI
system: HS 578T breast; assay: NCI tumour cell line growth inhibition, 48 h
Readout: TGI

INSERT INTO results (compound, target_or_test_system, readout, reported) VALUES
  ('O=C(OCCN=C1c2ccccc2CCc2ccccc21)c1cc([N+](=O)[O-])cc([N+](=O)[O-])c1', 'HS 578T breast', 'TGI', '> 31.6 µM'),
  ('C=C(O)c1ccccc1C#Cc1ccccc1C(=O)OC', 'HS 578T breast', 'TGI', '> 10 µM'),
  ('Clc1ccc(N=C/C=C/Nc2ccc(Cl)cn2)nc1', 'HS 578T breast', 'TGI', '23.3 µM'),
  ('O=C(Cn1c(=O)ccn(C2OC(CO)C(O)C2F)c1=O)c1ccc(F)cc1 (stereo not given)', 'HS 578T breast', 'TGI', '> 100 µM'),
  ('CCNC(=O)C[C@@H]1N=C(c2ccc(Cl)cc2)c2cc(OC)ccc2-n2c(C)nnc21', 'HS 578T breast', 'TGI', '> 41.5 µM');

---

test system: SF-295 CNS; assay: NCI tumour cell line growth inhibition, 48 h
Listed compounds paired with reported TGI
Readout: TGI

INSERT INTO measurements (compound, reported) VALUES
  ('C/C(=N\N=C(N)N)C(CN(CC(C)C)CC(C)C)C(=O)Nc1ccc(C)cc1C (stereo not drawn)', '> 100 µM'),
  ('O=P(c1ccccc1)(c1ccccc1)C1CC=C(c2ccccc2)C2(CCCC2)C1 (stereo not drawn)', '> 100 µM'),
  ('CCCCCC(CN1CCOCC1)C(=O)/C=C/c1ccccc1 (stereo not drawn)', '10.2 µM'),
  ('N#CC1=C(N)Oc2cc3c(cc2C1c1cccs1)OCO3 (stereo not drawn)', '> 100 µM'),
  ('S=c1[nH]nc(COc2ccc3c(c2)CCCC3)n1/N=C/c1ccc(Cl)cc1', '33.7 µM'),
  ('COc1cc2oc(=O)cc(C)c2cc1[N+](=O)[O-]', '> 100 µM'),
  ('Cc1ccc(Nc2nc(=S)[nH]c3[nH]ncc23)cc1', '> 100 µM'),
  ('CC/C=C\C[C@H](O)C/C=C1/C(=O)C=C[C@@H]1C/C=C\CCCC(=O)NC(C)C', '5.69 µM'),
  ('CCOC(=O)CC(=O)NC1CC2CCC1(C)C2(C)C (stereo not drawn)', '> 100 µM'),
  ('Cc1[nH]c2ncn3nc(C(Cl)(Cl)Cl)nc3c2c1Cc1ccccc1', '> 100 µM'),
  ('CN(C)c1ccc(-c2cc(=O)c3ccccc3[nH]2)cc1', '> 100 µM'),
  ('CSC(SC)=C1CC(=O)Nc2ccccc2C1=O', '> 100 µM'),
  ('Cc1ccc(C)c(NC(=O)C(=O)C2C(=O)C3=C(CC2(C)C)Nc2ccccc2S3)c1 (stereo not drawn)', '> 100 µM');

---

Listed molecules paired with reported GI50
test system: HCT-116 colon; assay: NCI tumour cell line growth inhibition, 48 h
Readout: GI50

INSERT INTO assay_data (molecule, readout, reported) VALUES
  ('O=C(Nc1ccc(Cl)c([N+](=O)[O-])c1)Nc1nc2ccccc2s1', 'GI50', '3.57 µM'),
  ('OCCN(CCO)N=Nc1ccc(-c2nc3ccccc3[nH]2)cc1', 'GI50', '25.3 µM'),
  ('CC(C)(C)[OH+][O-].[O-]c1ccc(Cl)cc1C=Nc1ccc(Cl)cc1[O-].[O]=[V]', 'GI50', '21.4 µM'),
  ('O=[N+]([O-])c1cnc(Sc2ccncn2)c([N+](=O)[O-])c1', 'GI50', '1.84 µM'),
  ('O=[N+]([O-])c1ccc(N2CCN(Cc3ccccc3)CC2)c2c1no[n+]2[O-]', 'GI50', '0.95 µM'),
  ('O=C(CCN1CCN(c2cccc(Cl)c2)CC1)N1CCc2c([nH]c3ccccc23)C1c1cccnc1 (stereo not given)', 'GI50', '6.36 µM'),
  ('CN(C)/[N+]([O-])=N/Oc1cc(Nc2cccc(C(=O)O)c2)c([N+](=O)[O-])cc1[N+](=O)[O-]', 'GI50', '34.5 µM'),
  ('Oc1ccc(C(c2ccccc2)(c2ccccc2)c2ccccc2)cc1', 'GI50', '12.9 µM'),
  ('Cc1ccc(Nc2nc(NCCO)c3ccccc3n2)cc1C', 'GI50', '3.95 µM'),
  ('O=S(=O)([O-])[O-].[OH3+].[OH3+].[OH3+].[Ru+2].c1ccccc1', 'GI50', '> 100 µM');

---

tested on: T-47D breast; test: NCI tumour cell line growth inhibition, 48 h
Readout: TGI

INSERT INTO measurements (compound, reported) VALUES
  ('O=C1c2ccccc2-c2c1c1ccccc1c(=O)n2Cc1ccco1', '> 100 µM'),
  ('CC1=C(C)C(=O)c2c(c(C(=O)c3ccccc3)c3nc4ccccc4n3c2C)C1=O', '> 100 µM'),
  ('COc1ccc(/C=C2\C=Cc3ccccc32)cc1OC', '> 100 µM'),
  ('CC/C=C\C[C@H](O)C/C=C1/C(=O)C=C[C@@H]1C/C=C\CCCC(=O)NC(C)C', '19.2 µM'),
  ('CCCC1NC(=O)C(CC(C)C)NC(=O)c2cccc(n2)C(=O)NC(CC(C)C)C(=O)NC(CCC)C(=O)NC(C(=O)OC)CCCCNC1=O (centres undefined)', '> 100 µM'),
  ('COC(=O)/C=C/c1cc(O)c2c(c1)C(C(=O)OC)C(c1ccc(O)c(O)c1)O2 (centres undefined)', '57.9 µM'),
  ('CCC1(C)C=Cc2c(cc(OC)c3c(=O)c4ccccc4n(C)c23)O1 (centres undefined)', '> 10 µM'),
  ('COc1c(CC=C(C)C)c(O)c(C(CC(C)C)c2c(O)c(C(C)=O)c(O)c3c2OC(C(C)(C)O)C3)c(O)c1C(C)=O (centres undefined)', '8.36 µM'),
  ('C=C(O)c1ccccc1C#Cc1ccccc1C(=O)OC', '> 10 µM');

---

system: DLD-1 colon; assay: NCI tumour cell line growth inhibition, 48 h
Where a SMILES comes first, the peptide text is derived from it.
Readout: TGI

INSERT INTO measurements (compound, target_or_test_system, readout, reported) VALUES
  ('C/C(=N\NC(=S)N1CCCCCC1)c1nccnc1C', 'DLD-1 colon', 'TGI', '> 100 µM'),
  ('CC1NC(=O)CNC(=O)CNC(=O)C(Cc2ccc(O)cc2)NC(=O)C(C(C)C)NC(=O)C(C)NC1=O (stereo not given) (cyclo(GGAAVY); configuration not given here)', 'DLD-1 colon', 'TGI', '> 100 µM'),
  ('O=C1NC(=O)C(C(=O)C(=O)Nc2ccc(Br)cc2)C(=O)N1', 'DLD-1 colon', 'TGI', '> 100 µM'),
  ('CC(=O)N(C)OC(=O)CC(=O)c1ccccc1', 'DLD-1 colon', 'TGI', '> 100 µM'),
  ('COc1cccc(N2C(=O)c3c(c4[nH]c5ccccc5c4c4ccc(C(C)(C)C)cc34)C2=O)c1', 'DLD-1 colon', 'TGI', '> 100 µM'),
  ('COC(=O)C1(C)C=C(Nc2ccccc2)C(=O)N1c1ccccc1 (stereo not given)', 'DLD-1 colon', 'TGI', '> 100 µM'),
  ('CC1=C2C(O)C(C(C)C(=O)NCC(C)C)CCC2(C)C=CC1=O (stereo not given)', 'DLD-1 colon', 'TGI', '> 100 µM'),
  ('C=C1C(=O)O[C@@H]2[C@H]3O[C@]3(C)CCC=C(C)CC[C@@H]12', 'DLD-1 colon', 'TGI', '28.4 µM'),
  ('COc1ccc2[nH]cc(CCNC(C)=O)c2c1', 'DLD-1 colon', 'TGI', '> 100 µM'),
  ('CCNc1nnc(CSc2nc(-c3ccccc3)c(-c3ccccc3)[nH]2)s1', 'DLD-1 colon', 'TGI', '52.7 µM');
